- Tested on: PC-3 prostate
- test method notes: NCI-60 one-dose screen, 48 h (100 = growth as untreated, 0 = no growth, -100 = all killed)
- condition parameters: 10 µM
This is part of a sample that, as a whole, favours compounds with a hit. Of some 83,000 tested, about 20% had one in any assay. The source made the active and inactive calls. The calls were made as follows: active = growth percent below 10; inactive = the rest.
measured metric: growth

Worked examples follow.
>  <compound>
Cc1cccc2c(NCCN(C)C)c3cccc(C(=O)NCCN(C)C)c3nc12

>  <growth>
-31% (active)

$$$$
>  <compound>
CC(C)(C#N)Nc1ccccc1

>  <growth>
108% (inactive)

$$$$

Which growth reading was recorded for the compound C=C1c2c(C)nn(-c3ccc(OC)cc3)c2N(C)C23C[C@@H]1C1(C)c4c(C)nn(-c5ccc(OC)cc5)c4N(C)C(C)(C[C@H]12)C3 (some centres not stated) ?
-4.74% (active)

Moving on to CCCC(F)C(=O)O (configuration not stated)
90.5% (inactive)

Moving on to COc1cc(NC(=O)CSc2nc3ccccc3c(=O)n2CCc2ccccc2)cc(OC)c1OC
41.8% (inactive)

Moving on to Cc1cc(N(CCCNc2ccnc3cc(Cl)ccc23)Cc2cccs2)nc(Cl)n1
40.4% (inactive)

Moving on to Cc1nc2ccccc2c(N)c1-c1cc(C)c2c(C)nc3ccccc3c2n1
-18.5% (active)

Moving on to FC(F)(F)c1ccc(-c2cnc(Cl)nc2N2CCC3(CC2)OCCO3)cc1
87.2% (inactive)

Moving on to Cc1ncc(-c2ccoc2)c(NC2CCCCCC2)n1
105% (inactive)

Moving on to N=C(N)c1ccc(-c2ccc(-c3ccccc3)o2)nc1
71.7% (inactive)

Moving on to COc1cc2nc(Nc3cccc(NC(C)=O)c3)nc(N)c2cc1OC
60% (inactive)

Moving on to O=C(CC(C(=O)c1ccccc1)N1CCOCC1)c1ccccc1 (configuration not stated)
99.4% (inactive)

Moving on to S=C1SCC(c2ccccc2)S1 (configuration not stated)
99.7% (inactive)

Moving on to Cc1ccc(N=Nc2c(N)nc(N)[nH]c2=O)cc1C
95.7% (inactive)

Moving on to N#CSCC1CC(O)(c2ccccc2)CC(c2ccc(Cl)cc2)O1 (configuration not stated)
29.4% (inactive)

Moving on to OCC1OC(n2cnc3c(N/N=C\c4ccccn4)ncnc32)C(O)C1O (configuration not stated)
21% (inactive)

Moving on to Cc1cs/c(=N\NC(=O)c2cc(-c3cc4ccccc4o3)nn2-c2ccccc2)n1-c1ccccc1
114% (inactive)

Moving on to CCOC(=O)N1C/C(=C/c2ccc(OC)cc2)C(=O)/C(=C/c2ccc(OC)cc2)C1
46.5% (inactive)

Moving on to O=C1/C(=C\c2ccc(Cl)cc2)CN(C(=S)Nc2ccccc2)C/C1=C\c1ccc(Cl)cc1
-55.6% (active)

Moving on to N=C(N)c1ccc(-c2ccc(-c3cccs3)o2)cc1
50.5% (inactive)

Moving on to Cc1c(Cl)cccc1NC(=O)c1sc2nc3c(cc2c1N)C(=O)CCC3
21.4% (inactive)

Moving on to CN(C)CCN1C(=O)c2cccc3c(-c4ccc5ncn(C6CCCCC6)c5c4)ccc(c23)C1=O
22% (inactive)

====

- Tested on: NCI-H23 lung
- test method notes: NCI-60 one-dose screen, 48 h (100 = growth as untreated, 0 = no growth, -100 = all killed)
- condition parameters: 10 µM
This is part of a sample that, as a whole, favours compounds with a hit. Of some 83,000 tested, about 20% had one in any assay.
hey, just use yes (1) if measured growth is less than 90%, otherwise no (0)

Solved entries:
>  <molecule>
O=[N+]([O-])c1cccc(N=Cc2ccc3c(c2)OCO3)c1

>  <target entity>
NCI-H23 lung

>  <assigned category>
no (0)

$$$$
>  <molecule>
CCCCCCCCCCCCCCCC(=O)OC1[C@@H](OC(=O)CCCCCCCCCCCCCCC)[C@@H](C(=O)N[C@@H](CCCCN)C(=O)OC)O[C@H]1n1cnc2c(=O)[nH]c(NC(=O)C(C)C)nc21 (stereo not given in full)

>  <target entity>
NCI-H23 lung

>  <assigned category>
no (0)

$$$$
>  <molecule>
COc1ccc(OC)c(/C=C/c2nc(SC)n(-c3ccc(Cl)cc3)n2)c1

>  <target entity>
NCI-H23 lung

>  <assigned category>
yes (1)

$$$$
>  <molecule>
O=C1OCC2=C1C(c1ccc(Cl)c(Cl)c1)c1cc3c(cc1N2CCO)OCCO3 (stereo not given)

>  <target entity>
NCI-H23 lung

>  <assigned category>
yes (1)

$$$$

Could you please tell me whether growth recorded for CC(=O)C1CCC2C3CC(F)C4=CC(=O)CCC4(C)C3C(O)CC12C (stereo not given) is less than 90%?
no (0)

Moving on to CN1CCC2(CC1)NC(=O)c1c(c3ccc(Cl)c(Cl)c3n1C)C2C#N (stereo not given)
yes (1)

Moving on to Cc1ccc(CC#N)cc1C
no (0)

Moving on to C#Cc1ccc(-n2c(/C=C/c3ccc(Cl)c(F)c3)nc3ncccc3c2=O)cc1
yes (1)

Moving on to CCN(CC)CCNc1ccc(CO)c2oc3cc(Cl)ccc3c(=O)c12
yes (1)

Moving on to CC[C@H](C)C(=O)O[C@H]1CCC=C2C=C[C@H](C)C(CCC3C[C@@H](O)CC(=O)O3)[C@H]21 (stereo not given in full)
yes (1)

Moving on to CCC1(C(C)C)NC(=O)NC1=O (stereo not given)
no (0)
